// values below are reported ELISA absorbance at 450 nm
target: T1, recombinant human DLL4 (Cat# 1506-D4/CF, R&D Systems) (human, UniProt Q9NR61 27-529); assay: ELISA, DLL4 coated, Fab 25 nM
T1 construct: Bought protein; also called hDLL4; rHuman DLL4

[
  {
    "Binder": "Fab VH5-51_IGHD5-18*01>3_IGHJ4*01 G100K/G104T G24T/S28R/G35V & V3-4_IGLJ1*01 V91L/S96P S52P (Fab, V domains shown, Fab made in E. coli: VH on CH1 with His6 and Flag tags (Plasmid A), VL on lambda CL (Plasmid E); also called H: KT TRV & L: LP S52P) VH: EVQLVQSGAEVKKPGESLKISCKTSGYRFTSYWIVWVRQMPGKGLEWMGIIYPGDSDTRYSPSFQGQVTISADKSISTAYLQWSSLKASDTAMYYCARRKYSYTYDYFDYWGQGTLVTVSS VL: QTVVTQEPSFSVSPGGTVTLTCGLSSGSVSTSYYPSWYQQTPGQAPRTLIYPTNTRSSGVPDRFSGSILGNKAALTITGAQADDESDYYCLLYMGPGISYVFGTGTKVTVL",
    "Unit Abbreviation": "A450",
    "ELISA absorbance at 450 nm": 0.59
  },
  {
    "Binder": "Fab VH5-51_IGHD5-18*01>3_IGHJ4*01 G100K/G104T G24T/S28R/G35V & V3-4_IGLJ1*01 V91L/S96P S52I (Fab, V domains shown, Fab made in E. coli: VH on CH1 with His6 and Flag tags (Plasmid A), VL on lambda CL (Plasmid E); also called H: KT TRV & L: LP S52I) VH: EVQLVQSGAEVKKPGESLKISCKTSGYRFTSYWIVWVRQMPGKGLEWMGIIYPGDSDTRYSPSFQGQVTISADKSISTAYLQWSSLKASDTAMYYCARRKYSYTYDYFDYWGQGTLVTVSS VL: QTVVTQEPSFSVSPGGTVTLTCGLSSGSVSTSYYPSWYQQTPGQAPRTLIYITNTRSSGVPDRFSGSILGNKAALTITGAQADDESDYYCLLYMGPGISYVFGTGTKVTVL",
    "Unit Abbreviation": "A450",
    "ELISA absorbance at 450 nm": 0.6
  }
]

Origin of measurements: patent US20110318339A1
